Target Desc: human Y5 receptor (Homo sapiens)
Construct: expressed in transfected cells; host or cells: CHO cells (CHO-Y5H), membrane preparation
Sequence (Q15761 whole entry): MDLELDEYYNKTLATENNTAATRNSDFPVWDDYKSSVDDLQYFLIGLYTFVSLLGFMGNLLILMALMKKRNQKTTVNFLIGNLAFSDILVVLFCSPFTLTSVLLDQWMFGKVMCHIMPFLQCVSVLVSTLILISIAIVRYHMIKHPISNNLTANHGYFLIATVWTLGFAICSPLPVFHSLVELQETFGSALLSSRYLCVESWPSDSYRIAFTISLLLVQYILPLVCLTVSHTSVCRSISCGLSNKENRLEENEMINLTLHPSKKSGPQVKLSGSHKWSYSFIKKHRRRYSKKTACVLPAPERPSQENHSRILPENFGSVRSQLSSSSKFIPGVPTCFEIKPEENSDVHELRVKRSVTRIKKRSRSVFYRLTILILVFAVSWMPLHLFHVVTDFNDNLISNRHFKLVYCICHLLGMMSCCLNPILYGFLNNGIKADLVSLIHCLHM
Assay Details: Binding test to the NPY Y5 receptor ([125I]-human PYY, CHO cell membranes)
Condition Set: CHO membranes, human Y5, [125I]-human PYY
Recorded Endpoint: IC50

GET /value?item= CCCCN1CCC(Oc2ccc(C(=O)Nc3ccc(Oc4ccc(NC(=O)NC(CC)CC)cc4OC)cc3)cc2)CC1 &field=IC50 returns > 10000 nM

---

Target Desc: NPY Y2 receptor (Homo sapiens, UniProt P49146)
Construct: host or cells: KAN.TS cells (whole-cell suspension)
Sequence (P49146 1-381): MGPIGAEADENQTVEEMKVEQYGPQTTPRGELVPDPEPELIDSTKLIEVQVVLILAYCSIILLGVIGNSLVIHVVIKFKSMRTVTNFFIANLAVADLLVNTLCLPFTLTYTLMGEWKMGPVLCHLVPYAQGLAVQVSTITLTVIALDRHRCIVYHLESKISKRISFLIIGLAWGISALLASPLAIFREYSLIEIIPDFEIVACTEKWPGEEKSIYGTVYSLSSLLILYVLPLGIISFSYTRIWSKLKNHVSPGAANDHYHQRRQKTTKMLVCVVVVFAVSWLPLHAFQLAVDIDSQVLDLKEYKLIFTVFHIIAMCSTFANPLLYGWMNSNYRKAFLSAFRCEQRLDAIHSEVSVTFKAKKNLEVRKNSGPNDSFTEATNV
Assay Details: Binding test to the NPY Y2 receptor ([125I]-PYY, KAN.TS cell suspension)
Condition Set: KAN.TS cells, [125I]-PYY
Recorded Endpoint: IC50

GET /value?item= CCCCN1CCC(Oc2ccc(C(=O)Nc3ccc(Oc4ccc(NC(=O)NC(CC)CC)cc4OC)cc3)cc2)CC1 &field=IC50 returns > 10000 nM

---

pIC50 overview
Target Desc: NPY Y1 receptor (Homo sapiens, UniProt P25929)
Sequence (P25929 1-384): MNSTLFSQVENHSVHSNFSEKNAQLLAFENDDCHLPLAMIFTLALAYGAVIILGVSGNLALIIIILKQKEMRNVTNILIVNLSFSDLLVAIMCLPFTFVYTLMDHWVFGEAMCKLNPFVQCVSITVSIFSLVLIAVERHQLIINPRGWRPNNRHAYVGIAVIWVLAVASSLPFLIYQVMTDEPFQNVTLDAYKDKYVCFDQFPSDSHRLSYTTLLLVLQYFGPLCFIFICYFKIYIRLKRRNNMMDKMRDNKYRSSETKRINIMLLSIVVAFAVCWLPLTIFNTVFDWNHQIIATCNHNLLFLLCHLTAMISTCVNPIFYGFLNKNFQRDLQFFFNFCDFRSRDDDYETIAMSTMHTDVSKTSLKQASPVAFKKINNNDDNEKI
Assay Details: Binding test to the NPY Y1 receptor ([125I]-PYY, SK-N-MC cell suspension)
Condition Set: SK-N-MC cells, 25 pM [125I]-PYY
Would you please state pIC50, meaning minus log10 of the concentration in mol/L, as a bare number?

Before answering, review these 2 worked examples.
pIC50 for NPY Y1 receptor (Homo sapiens, UniProt P25929) with input CCC(CC)NC(=O)Nc1ccc(Oc2cnc(NC(=O)c3ccc(OC4CCN(C(C)C)CC4)cc3)s2)c(OC)c1 equals 7.82

pIC50 for NPY Y1 receptor (Homo sapiens, UniProt P25929) with input CCOc1cc(NC(=O)NC(CC)CC)ccc1Oc1ccc(NC(=O)c2ccc(O[C@H]3C[C@H]4CC[C@@H](C3)N4C)cc2)cc1 equals 8.77

Others:
pIC50 for NPY Y1 receptor (Homo sapiens, UniProt P25929) with input CCCCN1CCC(Oc2ccc(C(=O)Nc3ccc(Oc4ccc(NC(=O)NC(CC)CC)cc4OC)cc3)cc2)CC1 equals 8.74
